Sourced from patent EP4740948A1

System: SW-13 cells
Assay: Cancer cell proliferation inhibition (Cell Counting Kit-8), adrenal cancer cell line
Format: cell-based
Condition Summary: Homo sapiens, SW13, 264 h, 1000 nM, cultured seven to 11 days; read-out: % inhibition rate SW-13
Metric: inhibition at 1 µM

compound="CCN(C)c1ccc(-c2cc(C(=O)NCc3c(SC)cc(C)[nH]c3=O)c(C)c3c2OC(C)(C2CCN(CC(F)(F)F)CC2)O3)cn1 (single isomer, unassigned) [Compound 79]" metric="inhibition at 1 µM" meas_value="30 to 70%"
compound="CSc1cc(C)[nH]c(=O)c1CNC(=O)c1cc(-c2cnc(N3CCCC3)nc2)c2c(c1C)OC(C)([C@H]1CC[C@H](N(C)C)CC1)O2 (relative stereo) [Compound 5]" metric="inhibition at 1 µM" meas_value="30 to 70%"

Problem: Entry under review: CSc1cc(C)[nH]c(=O)c1CNC(=O)c1cc(-c2ccc(N3C[C@@H](C)O[C@@H](C)C3)nc2)c2c(c1C)OC(C)([C@H]1CC[C@H](N3CC(OC(C)C)C3)CC1)O2 (stereo partly drawn) [Compound 105] . Reported inhibition at 1 µM?
Solution: ≥ 70%

----------
Target System: EZH2 (Homo sapiens)
Sequence (Q15910 whole entry, species assumed): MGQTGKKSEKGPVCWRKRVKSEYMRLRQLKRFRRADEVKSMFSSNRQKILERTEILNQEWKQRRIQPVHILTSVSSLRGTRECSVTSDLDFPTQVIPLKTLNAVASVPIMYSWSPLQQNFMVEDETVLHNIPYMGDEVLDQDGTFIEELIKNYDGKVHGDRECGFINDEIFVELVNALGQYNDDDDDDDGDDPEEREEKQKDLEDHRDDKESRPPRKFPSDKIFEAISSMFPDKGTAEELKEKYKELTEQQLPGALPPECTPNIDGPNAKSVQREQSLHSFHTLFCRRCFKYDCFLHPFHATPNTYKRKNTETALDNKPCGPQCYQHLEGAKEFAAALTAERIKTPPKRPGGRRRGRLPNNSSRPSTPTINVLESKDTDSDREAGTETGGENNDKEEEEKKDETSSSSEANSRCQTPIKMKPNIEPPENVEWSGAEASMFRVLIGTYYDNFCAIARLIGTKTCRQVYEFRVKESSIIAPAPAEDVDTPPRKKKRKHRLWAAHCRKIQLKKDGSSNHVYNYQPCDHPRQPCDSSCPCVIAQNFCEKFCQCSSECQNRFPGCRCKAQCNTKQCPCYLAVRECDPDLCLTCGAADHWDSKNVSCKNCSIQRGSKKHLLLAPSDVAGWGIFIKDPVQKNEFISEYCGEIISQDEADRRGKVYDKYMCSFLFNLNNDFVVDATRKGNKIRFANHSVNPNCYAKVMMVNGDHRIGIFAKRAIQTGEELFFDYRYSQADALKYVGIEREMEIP
Sequence (O75530 whole entry partner, species assumed): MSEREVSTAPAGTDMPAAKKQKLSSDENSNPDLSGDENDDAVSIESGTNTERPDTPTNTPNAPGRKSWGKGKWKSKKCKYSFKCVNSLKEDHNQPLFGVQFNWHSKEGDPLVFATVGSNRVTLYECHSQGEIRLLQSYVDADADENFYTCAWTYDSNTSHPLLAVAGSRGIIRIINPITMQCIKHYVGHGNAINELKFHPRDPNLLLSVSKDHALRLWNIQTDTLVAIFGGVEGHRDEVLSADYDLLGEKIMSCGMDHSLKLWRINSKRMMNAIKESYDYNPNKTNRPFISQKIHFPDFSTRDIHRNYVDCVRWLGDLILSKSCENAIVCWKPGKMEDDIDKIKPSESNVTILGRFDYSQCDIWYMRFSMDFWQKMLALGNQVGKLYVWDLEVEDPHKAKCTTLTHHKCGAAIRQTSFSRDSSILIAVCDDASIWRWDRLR
Sequence (Q15022 whole entry partner, species assumed): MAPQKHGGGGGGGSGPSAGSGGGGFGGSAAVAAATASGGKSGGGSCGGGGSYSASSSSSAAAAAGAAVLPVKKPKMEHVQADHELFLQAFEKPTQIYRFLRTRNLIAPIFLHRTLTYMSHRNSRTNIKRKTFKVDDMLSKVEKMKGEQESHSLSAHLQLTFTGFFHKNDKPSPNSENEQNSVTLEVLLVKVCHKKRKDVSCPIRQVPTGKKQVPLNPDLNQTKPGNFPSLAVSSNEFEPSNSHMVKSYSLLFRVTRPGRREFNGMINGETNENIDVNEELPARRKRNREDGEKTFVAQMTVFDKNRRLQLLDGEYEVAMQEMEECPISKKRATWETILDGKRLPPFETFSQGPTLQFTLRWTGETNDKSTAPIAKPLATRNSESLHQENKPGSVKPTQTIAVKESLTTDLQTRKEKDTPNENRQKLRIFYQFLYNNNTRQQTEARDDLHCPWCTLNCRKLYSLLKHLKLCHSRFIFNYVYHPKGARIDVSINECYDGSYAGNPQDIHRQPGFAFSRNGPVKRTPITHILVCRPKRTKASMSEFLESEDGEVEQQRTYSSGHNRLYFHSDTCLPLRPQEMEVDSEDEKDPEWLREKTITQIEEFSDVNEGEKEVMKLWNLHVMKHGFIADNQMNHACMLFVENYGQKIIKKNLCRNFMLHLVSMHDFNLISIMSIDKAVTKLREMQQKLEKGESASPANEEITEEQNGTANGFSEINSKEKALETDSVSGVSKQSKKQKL
Assay: AlphaLISA enzyme activity inhibition, EZH2
Format: biochemical
Condition Summary: 5nM test substance
Metric: inhibition at 0.005 µM (%)
Supply the numeric figure in %, leaving out any unit text.

compound="CSc1cc(C)[nH]c(=O)c1CNC(=O)c1cc(-c2cnc(N3CCOCC3)nc2)c2c(c1C)OC(C)(C1CCN(CC(F)F)CC1)O2 (single isomer, unassigned)" metric="inhibition at 0.005 µM" unit_descriptor=% meas_value=96.1

Problem: Entry under review: CCN1CCC(C2(C)Oc3c(-c4ccc(N(C)CC)nc4)cc(C(=O)NCc4c(SC)cc(C)[nH]c4=O)c(C)c3O2)CC1 (single isomer, unassigned) . Reported inhibition at 0.005 µM?
Solution: 99.5

Problem: Entry under review: COCCN(C)[C@H]1CC[C@H](C2(C)Oc3c(-c4ccc(N5CCC(F)(F)CC5)nc4)cc(C(=O)NCc4c(SC)cc(C)[nH]c4=O)c(C)c3O2)CC1 (relative stereo) . Reported inhibition at 0.005 µM?
Solution: 95.8

Problem: Entry under review: CCCCN(C)c1ccc(-c2cc(C(=O)NCc3c(SC)cc(C)[nH]c3=O)c(C)c3c2OC(C)(C2CCN(CC(F)(F)F)CC2)O3)cn1 (centres unmarked) . Reported inhibition at 0.005 µM?
Solution: 52.2

Problem: Entry under review: CSc1cc(C)[nH]c(=O)c1CNC(=O)c1cc(-c2c(C)noc2C)c2c(c1C)OC(C)([C@H]1CC[C@H](N(C)C)CC1)O2 (relative stereo) . Reported inhibition at 0.005 µM?
Solution: 97.6

----------
Target System: UniProtKB Q15910
Assay: AlphaLISA enzyme activity inhibition, EZH2
Type: biochemical
Condition Summary: 5nM test substance
inhibition at 0.005 µM by entry:
Supply the numeric figure in %, leaving out any unit text.

compound="CSc1cc(C)[nH]c(=O)c1CNC(=O)c1cc(-c2ccc(N3CCCCC3)cc2)c2c(c1C)OC(C)(C1CCN(CC(F)(F)F)CC1)O2 (centres unmarked) [Compound 90]" meas_value=60.1
compound="COc1ccc(F)cc1-c1cc(C(=O)NCc2c(SC)cc(C)[nH]c2=O)c(C)c2c1OC(C)(C1CCC(N(C)C)CC1)O2 (centres unmarked) [Compound 43]" meas_value=94.6
compound="CSc1cc(C)[nH]c(=O)c1CNC(=O)c1cc(-c2ccc(Cl)s2)c2c(c1C)OC(C)([C@H]1CC[C@H](N(C)C)CC1)O2 (relative stereo) [Compound 19]" meas_value=98.7

Problem: Query for UniProtKB Q15910: what inhibition at 0.005 µM does the record show for CSc1cc(C)[nH]c(=O)c1CNC(=O)c1cc(-c2ccc(CN3CCOCC3)cc2)c2c(c1C)OC(C)([C@H]1CC[C@H](N(C)C)CC1)O2 (relative stereo) [Compound 6] ?
Solution: 98.2

Problem: Query for UniProtKB Q15910: what inhibition at 0.005 µM does the record show for CSc1cc(C)[nH]c(=O)c1CNC(=O)c1cc(-c2ccc(N3C[C@@H](C)O[C@@H](C)C3)nc2)c2c(c1C)OC(C)(C1CCN(C3CCCCC3)CC1)O2 (single isomer, unassigned) [Compound 53] ?
Solution: 98.5
